Reported Ki values follow for various compounds
# Study target: 5-HT1B receptors (Homo sapiens, UniProt P28222)
# Construct: expressed in transfected cells; host or cells: CHO
# Sequence (P28222 whole entry): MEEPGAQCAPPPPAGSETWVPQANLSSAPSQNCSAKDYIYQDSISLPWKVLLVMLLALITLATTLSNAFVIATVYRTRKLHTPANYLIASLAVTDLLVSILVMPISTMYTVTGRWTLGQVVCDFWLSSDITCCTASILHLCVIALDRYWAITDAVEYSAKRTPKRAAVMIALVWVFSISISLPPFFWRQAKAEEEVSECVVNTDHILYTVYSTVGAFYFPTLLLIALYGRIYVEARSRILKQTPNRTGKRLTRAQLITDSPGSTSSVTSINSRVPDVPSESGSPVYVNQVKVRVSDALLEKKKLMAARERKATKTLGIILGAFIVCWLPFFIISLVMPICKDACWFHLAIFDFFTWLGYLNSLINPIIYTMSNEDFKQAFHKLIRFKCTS
# Assay explanation: 5-HT1B receptor binding ([3H]-5-HT, CHO cell homogenate)
# Experimental parameters: CHO cells expressing 5-HT1B receptors; [3H]-5-HT (4nM); pH 7.7, 37° C., 45 minutes; read-out: pKi values at 5-HT1B (converted)

// worked examples, Ki included
| Compound string | Study target | Result |
| --- | --- | --- |
| CN1CCN(c2cc(NC(=O)Nc3ccc(-c4ccncc4)c4ccccc34)ccc2Cl)CC1 | 5-HT1B receptors (Homo sapiens, UniProt P28222) | < 0.01 µM |
| COc1ccc(NC(=O)Cc2ccc(-c3ccncc3)c3ccccc23)cc1N1CCN(C)CC1 | 5-HT1B receptors (Homo sapiens, UniProt P28222) | < 0.01 µM |
| COc1ccc(NC(=O)Cc2ccc(-c3cccnc3)c3ccccc23)cc1N1CCN(C)CC1 | 5-HT1B receptors (Homo sapiens, UniProt P28222) | < 0.01 µM |
| COc1ccc(NC(=O)Nc2cccc3c(-c4cccc(C(C)=O)c4)cccc23)cc1N1CCN(C)CC1 | 5-HT1B receptors (Homo sapiens, UniProt P28222) | < 0.01 µM |

(Q) Value lookup for Ki; key = COc1ccc(NC(=O)Nc2cccc3c(-c4ccccc4)cccc23)cc1N1CCN(C)CC1
(A) < 0.01 µM

(Q) Moving on to CN1CCN(c2cc(NC(=O)Cc3ccc(-c4ccncc4)c4ccccc34)ccc2Br)CC1
(A) < 0.01 µM

Values from patent US6159979A
